- target system: hGIPR (Homo sapiens, UniProt P48546)
- Sequence (P48546 22-466): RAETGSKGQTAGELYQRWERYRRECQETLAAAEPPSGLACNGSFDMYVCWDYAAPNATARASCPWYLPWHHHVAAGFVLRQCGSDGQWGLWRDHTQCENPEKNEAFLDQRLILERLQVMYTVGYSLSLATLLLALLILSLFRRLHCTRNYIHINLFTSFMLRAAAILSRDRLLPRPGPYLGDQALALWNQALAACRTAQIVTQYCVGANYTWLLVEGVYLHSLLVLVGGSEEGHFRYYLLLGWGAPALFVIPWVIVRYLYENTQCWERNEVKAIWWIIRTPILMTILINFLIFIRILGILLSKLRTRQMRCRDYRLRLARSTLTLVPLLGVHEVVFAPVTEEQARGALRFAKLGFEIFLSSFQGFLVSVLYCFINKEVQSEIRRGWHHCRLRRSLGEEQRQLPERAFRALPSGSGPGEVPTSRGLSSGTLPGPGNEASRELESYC
- protocol notes: Functional cAMP activation in the presence of 0.1% casein (no HSA);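 also: intracellular cAMP rise after 30 min at 37 °C read by HTRF against a standard curve, scaled between buffer alone (0%) and top control ligand concentration (100%), four-parameter fit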
- Type: cell-based
- experimental setup: in the presence of 0.1% casein (no HSA); geometric mean; read-out: Relative cAMP EC50, hGIPR
Starred links: 1 amine or outer side, 2 acyl side, 3 side chain; linkers in the order of their positions; H or OH if unused. Non-standard residues stand in square brackets, D forms with d. Groups on a side chain read outwards from the residue. No end group written: not given here. *: point of attachment. C20 diacid = O=C(O)CCCCCCCCCCCCCCCCCCC(=O)*; C18 diacid = O=C(O)CCCCCCCCCCCCCCCCC(=O)*; γGlu = O=C(O)[C@H](CCC(=O)[*:2])N[*:1]; αMe4Pal = C[C@](N)(Cc1ccncc1)C(=O)O; αMeY = C[C@](N)(Cc1ccc(O)cc1)C(=O)O; 4Pal = N[C@@H](Cc1ccncc1)C(=O)O; αMeL = CC(C)C[C@](C)(N)C(=O)O; Orn = NCCC[C@H](N)C(=O)O; AEEA = NCCOCCOCC(=O)O; Aib = CC(C)(N)C(=O)O
param class (str): category from EC50; see ranges low-valued = under 0.1 nM, mid-valued = from 0.1 nM up to 0.2 nM, high-valued = 0.2 nM and over

Example entries and their recorded answers appear below.
[
  {
    "substance": "H-Y[Aib]QGTFTSD[4Pal]SQ[αMeL]LD[Orn]K([AEEA-γGlu-C18 diacid])AQ[αMe4Pal]AFIEYLIA[Aib]GPSSGEPPPSGSEE-NH2 [Example 1095]",
    "discrete label": "low-valued"
  },
  {
    "substance": "H-Y[Aib]QGTFTSD[4Pal]SQ[αMeL]LD[Orn]K([AEEA-γGlu-C18 diacid])AQ[αMe4Pal]AFIE[αMeY]LIA[Aib]GPSSGAPPPSGSEE-NH2 [Example 1110]",
    "discrete label": "low-valued"
  },
  {
    "substance": "H-Y[Aib]QGTFTSDYSK[αMeL]LDKK([AEEA-γGlu-C20 diacid])AQQAFVQWLIEGGPSSGEPPPSEG-NH2 [Example 315]",
    "discrete label": "high-valued"
  },
  {
    "substance": "H-Y[Aib]QGTFTSDYSI[αMeL]LDKK([AEEA-γGlu-C20 diacid])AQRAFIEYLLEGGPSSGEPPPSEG-NH2 [Example 289]",
    "discrete label": "high-valued"
  }
]

Category lookup for the substance H-Y[Aib]QGTFTSDYSI[αMeL]LDKQAAK([AEEA-AEEA-γGlu-C20 diacid])AFVEWLLAGGPSSGEPPPSEG-NH2 [Example 305]
high-valued

Into which category would you place H-Y[Aib]QGTFTSD[4Pal]SQ[αMeL]LDKK([γGlu-γGlu-C18 diacid])AQ[αMe4Pal]AFIEYLIE[Aib]GPSSGAPPPSGSE-NH2 [Example 890] ?
mid-valued

In plain terms, what class is H-Y[Aib]QGTFTSD[4Pal]SQ[αMeL]LD[Orn]K([γGlu-γGlu-C18 diacid])AQ[αMe4Pal]QFIEYLIAGGPSSGAPPPSGSEE-NH2 [Example 1005] ?
mid-valued

Please classify: Y[Aib]QGTFTSD[4Pal]SQ[αMeL]LDKK([AEEA-γGlu-C18 diacid])AQ[αMe4Pal]AFIEWLIEGGPSSGAPPPSG[4Pal]-NH2 [Example 832]
mid-valued

# bin label for H-Y[Aib]QGTFTSDFS[Orn][αMeL]LDKK([AEEA-γGlu-C18 diacid])AQ[Aib]AFIEYLLEGGHSSGAPPPGGS-NH2 [Example 162]
high-valued

Bin this entry: H-Y[Aib]QGTFTSD[4Pal]SK[αMeL]LDKK([AEEA-γGlu-C18 diacid])AQ[Aib]AFIEYLIEGGPSSGAPPPSGS-NH2 [Example 908]
high-valued
